All figures here come from PubChem BioAssay AID1851.

# target.system: Cytochrome P450 3A4 (Homo sapiens) (UniProt P08684)
# Sequence (P08684 whole entry, looked up): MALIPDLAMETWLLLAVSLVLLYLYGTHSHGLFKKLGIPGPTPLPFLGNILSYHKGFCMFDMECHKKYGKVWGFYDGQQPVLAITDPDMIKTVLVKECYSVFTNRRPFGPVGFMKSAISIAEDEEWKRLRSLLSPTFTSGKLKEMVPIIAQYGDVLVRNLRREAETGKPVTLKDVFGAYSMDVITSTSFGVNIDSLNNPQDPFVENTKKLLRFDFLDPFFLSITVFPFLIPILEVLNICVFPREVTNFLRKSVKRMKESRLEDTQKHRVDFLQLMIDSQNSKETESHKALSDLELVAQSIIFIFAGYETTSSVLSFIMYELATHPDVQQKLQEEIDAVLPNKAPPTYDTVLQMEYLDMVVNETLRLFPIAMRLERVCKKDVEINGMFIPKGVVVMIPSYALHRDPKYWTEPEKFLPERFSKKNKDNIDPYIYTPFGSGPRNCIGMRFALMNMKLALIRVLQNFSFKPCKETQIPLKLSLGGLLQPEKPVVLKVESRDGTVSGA
# procedure.text: Cytochrome panel assay with activity outcomes
# measurement.context: recombinant CYP, pro-luciferin dealkylation, luminescence, p450-cyp3a4; series mostly up to 57.1 µM
The campaign covered roughly 16,000 compounds. About 5,100 (32%) were called active. Roughly 25% stayed inconclusive and do not appear here. The list shows a part of the results.
quantity: AC50

# annotated cases, reported AC50 shown
- sample.smiles: "CCCCN(C)Cc1c(C)[nH]c2ccc(Cl)cc2c1=O"
  AC50: "inactive"
- sample.smiles: "CCN1CCN(CCCNC(=O)c2cc3cc4ccc(OC)cc4nc3o2)CC1"
  AC50: "inactive"
- sample.smiles: "Fc1ccccc1NC(=S)NCCc1ccccc1"
  AC50: "12.6 µM (active)"
- sample.smiles: "Fc1cc(Br)ccc1NC(=S)NCCc1ccccc1"
  AC50: "15.8 µM (active)"
- sample.smiles: "CCCNC(=O)N1N=C(c2ccc(N)cc2)c2cc3c(cc2[C@H]1C)OCO3"
  AC50: "1.26 µM (active)"
- sample.smiles: "COc1ccccc1NC(=S)NCCc1ccccc1"
  AC50: "11.2 µM (active)"
- sample.smiles: "COc1ccc2cc3cc(C(=O)NCCN4CCN(c5ccccc5F)CC4)oc3nc2c1"
  AC50: "14.1 µM (active)"
- sample.smiles: "CCOC(=O)c1[nH]c2ccc(Cl)cc2c1-c1ccccc1"
  AC50: "inactive"

Look up AC50: "CCCCCCN(CCCCCC)C(=O)Cc1c(-c2ccc(F)cc2)[nH]c2ccccc12" 2.51 µM (active)

Look up AC50: "CCOc1ccc2ccccc2c1C(=O)N[C@@H]1C(=O)N2[C@@H]1SC(C)(C)[C@@H]2C(=O)O" inactive

Look up AC50: "O=C(O)C1=CC(=C(c2ccc(O)c(C(=O)O)c2)c2ccc(O)c(C(=O)O)c2)C=CC1=O" inactive

###

# target.system: Cytochrome P450 3A4 (Homo sapiens)
# procedure.text: Cytochrome panel assay with activity outcomes
# measurement.context: recombinant CYP, pro-luciferin dealkylation, luminescence, p450-cyp3a4; series mostly up to 57.1 µM
# Protocol: The P450 gene superfamily is involved in the metabolism and clearance of xenobiotics. This assay used various human CYP P450 isozymes to measure the dealkylation of various pro-luciferin substrates to luciferin. The luciferin is then measured by luminescence after the addition of a luciferase detection reagent. […] Inhibitors and some substrates limit the production of luciferin, and decrease measured luminescence. […] 8, Detection, 1 sec, ViewLux luminescent read […]
Among all 16,000 compounds or so, about 5,100 (32%) were called active. About 25% were inconclusive and are not listed. Calls follow the shape of the dose curve; as a rule, active = well fitted curve in the direction sought with a large enough effect; inconclusive = small, poorly fitted or top-dose-only effect, or effect the other way; inactive = no such curve, though single readings can be large or run the other way. This is one part of the list.
Thanks in advance; please answer with one of these: active, inactive

Tell me the assay call for "COc1ccc(CCn2c(=N)c(C(=O)NCc3ccco3)cc3c(=O)n4ccccc4nc32)cc1" please. active

Tell me the assay call for "O=C(c1cccc(F)c1)N1CCC[C@@]2(CCN(c3ccncc3)C2)C1" please. active

Tell me the assay call for "C=CC[C@@H]1C=C[C@H](O/N=C\[C@@H](C)[C@H](OCc2ccccc2)C(C)C)[C@H](CO)O1" please. active

Tell me the assay call for CC1CC(OCC(O)CN2CCN(Cc3ccccc3)CC2)CC(C)(C)C1 (stereo not given) please. active

Tell me the assay call for "O=C(NCCCN1CCN(C2CCCCC2)CC1)Nc1ccccc1C(F)(F)F" please. inactive

Tell me the assay call for "COc1cccc([C@@H]2Oc3ccc(OC)cc3/C(=N/OC[C@@H](O)COCc3ccco3)[C@@H]2O)c1" please. active

Tell me the assay call for "O=C(NCCCN1CCCCCC1)[C@@H](c1ccccc1)C1CCCCC1" please. active

Tell me the assay call for COc1ccc2c(c1)OC1=C(C(=O)CCC1)C2C1=C(O)CCCC1=O (stereo not given) please. inactive

Tell me the assay call for "COc1cccc([C@H]2Oc3ccc(OC)cc3/C(=N\OC[C@@H](O)[C@@H]3O[C@@H]4OC(C)(C)O[C@@H]4[C@H]3O)[C@@H]2O)c1" please. active

Tell me the assay call for "COC(=O)c1cc(C#N)c(NCc2ccc(Cl)cc2Cl)nc1C" please. inactive

Tell me the assay call for "Cc1ncc2c(c1O)COP(=O)(O)OC2" please. inactive

Tell me the assay call for "O=C(c1cccc(F)c1)N1CCC2(CC1)CN(c1ccncc1)C2" please. inactive

Tell me the assay call for CC1CCC(C(C)C)C(OCC(O)CN2CCN(Cc3ccccc3)CC2)C1 (stereo not given) please. inactive

Tell me the assay call for "O=C1CCCC2=C1C(c1ccc(OS(=O)(=O)c3ccc(Cl)cc3)cc1)C1=C(CCCC1=O)O2" please. active

Tell me the assay call for "CN(C)CCOC(=O)[C@@H](c1ccccc1)C1(O)CCCC1" please. inactive

Tell me the assay call for "C=CC[C@@H]1C=C[C@@H](O/N=C\[C@@H](OC)[C@H](C)/C=C\CC(=O)OC)[C@@H](CO)O1" please. active

Tell me the assay call for "O=C(c1ccccc1)N1CCSC1=S" please. inactive

Tell me the assay call for "COc1cccc([C@@H]2Oc3ccc(OC)cc3/C(=N/OC[C@@H](C)[C@H](OCc3ccccc3)C(C)C)[C@@H]2O)c1" please. active

Tell me the assay call for "COc1cc(/C=C\C(=O)N2CCC=CC2=O)cc(OC)c1OC" please. inactive

Tell me the assay call for "CCSc1nc2ccccc2n1C(=O)/C=C\c1ccc(OC)c(OC)c1" please. active

###

# target.system: Cytochrome P450 3A4 (Homo sapiens) (UniProt P08684)
# procedure.text: Cytochrome panel assay with activity outcomes; for activity, negative = inhibition: % is set by controls: 0 for no effect and ±100 for the full control effect
# measurement.context: recombinant CYP, pro-luciferin dealkylation, luminescence, p450-cyp3a4; series mostly up to 57.1 µM
In all, about 16,000 compounds went through this assay and about 5,100 (32%) were called active. Not shown: some 25% with an inconclusive outcome. This is one part of the list. Square brackets hold non-standard residues; d marks the D form. Peptide text beside a SMILES is read from it.
So I've got a bunch of compounds here, and I need their activity, negative = inhibition values.

Look up activity, negative = inhibition: "Nc1nc(-c2cccc([N+](=O)[O-])c2)cc(-c2cc(-c3cccc([N+](=O)[O-])c3)nc(N)n2)n1" -1.01% [at 11.4 µM] (inactive)

Look up activity, negative = inhibition: "Nc1ncnc2c1ncn2[C@H]1O[C@@H](C(=O)O)[C@@H](O)[C@H]1O" 0.186% [at 11.4 µM] (inactive)

Look up activity, negative = inhibition: COc1cccc(C2C3(C#N)C(N)=NC(OC)(OC)C23C#N)c1 (stereo not drawn) -16.8% [at 2.29 µM] (inactive)

Look up activity, negative = inhibition: "COc1ccc(/C=C/C(=O)Nc2nc(C)cc(C)n2)cc1OC" 2.05% [at 2.29 µM] (inactive)

Look up activity, negative = inhibition: "COc1ccc2c3c(ccc2c1)N[C@H](C(=O)O)CC3" -10.2% [at 11.4 µM] (inactive)

Look up activity, negative = inhibition: C=CC1=C[C@@H](O)C2OC2C12OCCCO2 (stereo partly drawn) -4.04% [at 11.4 µM] (inactive)

Look up activity, negative = inhibition: "Cc1cc(Oc2ccccc2)nc(NCc2ccccc2)n1" 7.15% [at 11.4 µM] (inactive)

Look up activity, negative = inhibition: "O=C(O)Cc1cc(Cl)ccc1O" -2.24% [at 11.4 µM] (inactive)

Look up activity, negative = inhibition: "Nc1nc(-c2cc(-c3cccc4ccccc34)nc(N)n2)cc(-c2cccc3ccccc23)n1" 6.26% [at 11.4 µM] (inactive)

Look up activity, negative = inhibition: "Nc1nc(N)c2nn(-c3ccc(C(=O)O)cc3)nc2n1" -6.41% [at 11.4 µM] (inactive)

Look up activity, negative = inhibition: "O=C(C[N+]1(c2ccccc2)CCOCC1)c1ccccc1" -14.4% [at 11.4 µM] (inactive)

Look up activity, negative = inhibition: "O=C(CSc1nc2ccccc2o1)Nc1nc2ccccc2s1" -7.57% [at 2.29 µM] (inactive)

Look up activity, negative = inhibition: "N#Cc1ccc(OC(=O)c2ccc(N=C(N)N)cc2)cc1" -10.9% [at 11.4 µM] (inactive)

Look up activity, negative = inhibition: "O=C(Nc1cccc2nsnc12)c1ccc(-c2cccc(Cl)c2)o1" 1.55% [at 2.29 µM] (inactive)

Look up activity, negative = inhibition: "O=C(O)c1nn(-c2ccc(Cl)cc2)c2c1C(=O)c1ccccc1C2=O" -4.55% [at 11.4 µM] (inactive)

Look up activity, negative = inhibition: "O=C(O)c1ccc(/C=N\N=C2c3ccccc3-c3ccccc32)cc1" -15.1% [at 11.4 µM] (inactive)

Look up activity, negative = inhibition: "CC(C)CN=C(N)N=C(N)N" -1.21% [at 11.4 µM] (inactive)

Look up activity, negative = inhibition: "CN(C(=O)c1ccncc1)c1ccccc1" -11.8% [at 11.4 µM] (inactive)

Look up activity, negative = inhibition: "O=C(O)/C(=C\c1ccc(O)cc1)c1cccc2ccccc12" -2.12% [at 11.4 µM] (inactive)

Look up activity, negative = inhibition: "NCCSS(=O)(=O)CCN" 5.43% [at 11.4 µM] (inactive)

Look up activity, negative = inhibition: "O=C(CCc1ccccc1)NNC(=S)NC(=O)c1ccccc1" 7% [at 2.29 µM] (inactive)

Look up activity, negative = inhibition: "O=C(NNC(=O)c1ccncc1)c1ccncc1" -9.5% [at 11.4 µM] (inactive)

Look up activity, negative = inhibition: "CCN(CC)C(=O)COc1ccc(S(=O)(=O)N2CCOCC2)cc1" -4.69% [at 11.4 µM] (inactive)

Look up activity, negative = inhibition: "CC(=O)CC(=O)Nc1ccc2ccccc2c1" -28.5% [at 11.4 µM] (inactive)

Look up activity, negative = inhibition: "CCOC(=O)N/N=C(/C)c1ccc([N+](=O)[O-])o1" -3.74% [at 2.29 µM] (inactive)

Look up activity, negative = inhibition: "O=C(O)/C(=C\c1ccccc1)c1ccccc1" -6.04% [at 11.4 µM] (inactive)

Look up activity, negative = inhibition: "CC(=O)[C@H](C(=N)C#N)C(=O)Nc1ccccc1" 3.78% [at 11.4 µM] (inactive)

Look up activity, negative = inhibition: CC1=CC(=O)C=CC1(C)C(Cl)(Cl)Cl (stereo not drawn) 2.38% [at 2.29 µM] (inactive)

Look up activity, negative = inhibition: "O=C(O)CCC(=O)c1ccc2sc3ccccc3c2c1" -21.1% [at 11.4 µM] (inactive)

Look up activity, negative = inhibition: "Cc1ccc(-c2c3c(nc4sc(C(N)=O)c(N)c24)CCC3)cc1" 0.806% [at 2.29 µM] (inactive)

Look up activity, negative = inhibition: "O=C(CNC1CCCCCC1)Nc1ccccc1N1CCCCC1" -25% [at 2.29 µM] (inactive)

Look up activity, negative = inhibition: "c1c[nH]c(CN2CCOCC2)n1" -23.7% [at 11.4 µM] (inactive)

Look up activity, negative = inhibition: "COc1ccc(CSC2=C(C#N)C(=O)NC3(CCCCC3)S2)cc1" -12.2% [at 11.4 µM] (inactive)

Look up activity, negative = inhibition: "CC(=O)Nc1ccc(N2C(=O)CC(c3ccccc3)CC2=O)cc1" 1.08% [at 2.29 µM] (inactive)

Look up activity, negative = inhibition: "COC(=O)c1cc2n(n1)CCN(Cc1ccccc1F)C2=O" 17.9% [at 2.29 µM] (inactive)

Look up activity, negative = inhibition: "Cc1ccc(S(=O)(=O)NC(=O)Nc2ncn[nH]2)cc1" -2.15% [at 11.4 µM] (inactive)

Look up activity, negative = inhibition: "O=C(N/N=C/c1cccc(OC2CSC2)c1)c1ccccc1O" -1.49% [at 2.29 µM] (inactive)

Look up activity, negative = inhibition: "COc1cc(C)cc(OC)c1/C=C\C(=O)O" -4.32% [at 11.4 µM] (inactive)

Look up activity, negative = inhibition: "CCOc1c2ccc(C(=O)NCc3ccc4c(c3)OCO4)cc2nn1CC" 14.3% [at 2.29 µM] (inactive)

Look up activity, negative = inhibition: "CC(C)[C@H](NC(=O)OC(C)(C)C)[C@@H](O)CC(=O)C(C)(C)C" -11% [at 11.4 µM] (inactive)

Look up activity, negative = inhibition: CC1(O)CC(=O)N(c2ccccc2)O1 (stereo not drawn) 1.65% [at 2.29 µM] (inactive)

Look up activity, negative = inhibition: NCC(=O)N[C@H](CO)C(=O)O (H-Gly-[dS]-OH) -9.24% [at 11.4 µM] (inactive)

Look up activity, negative = inhibition: "Cc1nc(Oc2ccc(Cl)cc2)c2oc3ccccc3c2n1" 5.99% [at 2.29 µM] (inactive)

Look up activity, negative = inhibition: "CCON=C1C(C)(C)C(C)(C)C(C)(C)C1(C)C" -9.31% [at 11.4 µM] (inactive)

Look up activity, negative = inhibition: "O=C1C2=CC[C@H]3C(=O)N(c4cccc(Oc5ccccc5)c4)C(=O)[C@@H]3[C@@H]2[C@H](O)[C@@H]2O[C@H]12" -4.92% [at 11.4 µM] (inactive)

Look up activity, negative = inhibition: "NC(=O)c1csc(-c2ccc(CO)o2)n1" -8.17% [at 11.4 µM] (inactive)

Look up activity, negative = inhibition: "Cn1cnc([N+](=O)[O-])c1Sc1nc(N)nc2c1ncn2[C@H]1C[C@H](O)[C@@H](CO)O1" -4.33% [at 11.4 µM] (inactive)

Look up activity, negative = inhibition: "C[C@@H](c1ccccc1)N1C(=O)[C@H]2[C@@H]3[C@H](O)C=CC(=O)[C@H]3CC[C@H]2C1=O" -17.4% [at 11.4 µM] (inactive)
